Cited source for all entries: patent US8946142B2

target: human AT1R (Homo sapiens); experiment: IP1 accumulation assay (IP1 G-protein assay), human AT1R; format: cell-based; settings: read-out: EC50
Sequence (P30556 whole entry): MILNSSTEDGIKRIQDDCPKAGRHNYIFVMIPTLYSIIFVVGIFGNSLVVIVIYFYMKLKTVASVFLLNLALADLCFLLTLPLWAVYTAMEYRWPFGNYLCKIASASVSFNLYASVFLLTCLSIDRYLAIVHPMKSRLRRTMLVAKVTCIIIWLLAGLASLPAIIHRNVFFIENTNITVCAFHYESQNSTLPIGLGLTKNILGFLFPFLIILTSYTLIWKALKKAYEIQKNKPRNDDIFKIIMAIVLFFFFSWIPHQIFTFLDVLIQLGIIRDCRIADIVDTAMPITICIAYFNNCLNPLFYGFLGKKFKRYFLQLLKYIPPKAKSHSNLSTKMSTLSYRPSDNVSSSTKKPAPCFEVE
Where a SMILES comes first, the peptide text is derived from it. [ ]: non-standard residue; d: D form. Tle = CC(C)(C)[C@H](N)C(=O)O; Ac6c = NC1(C(=O)O)CCCCC1; Ac5c = NC1(C(=O)O)CCCC1; Sar = CNCC(=O)O
Exercise: state measured EC50 for each of the molecules provided.

Find the measured EC50: item CNCC(=O)N[C@@H](CCCNC(=N)N)C(=O)N[C@H](C(=O)N[C@@H](Cc1ccc(O)cc1)C(=O)NC1(C(=O)N[C@@H](Cc2c[nH]cn2)C(=O)N2CCC[C@H]2C(=O)N[C@@H](CCSC)C(=O)O)CCCCC1)C(C)C [SEQ ID NO: 16, Sar-Arg-Val-Tyr-cyHex-His-Pro-Met] (H-[Sar]RVY[Ac6c]HPM-OH) , target or system human AT1R (Homo sapiens).
> 1.3 nM

Here is the next molecule: CNCC(=O)N[C@@H](CCCNC(=N)N)C(=O)N[C@H](C(=O)N[C@@H](Cc1ccc(O)cc1)C(=O)NC1(C(=O)N[C@@H](Cc2c[nH]cn2)C(=O)N2CCC[C@H]2C(=O)N[C@@H](CCC(N)=O)C(=O)O)CCCCC1)C(C)C [SEQ ID NO: 38, Sar-Arg-Val-Tyr-cyHex-His-Pro-Gln] (H-[Sar]RVY[Ac6c]HPQ-OH)
> 1.3 nM

Here is the next molecule: CNCC(=O)N[C@@H](CCCNC(=N)N)C(=O)N[C@H](C(=O)N[C@@H](Cc1ccc(O)cc1)C(=O)NC1(C(=O)N[C@@H](Cc2c[nH]cn2)C(=O)N2CCC[C@H]2C(=O)N[C@@H](Cc2c[nH]c3ccccc23)C(=O)O)CCCCC1)C(C)C [SEQ ID NO: 54, Sar-Arg-Val-Tyr-cyHex-His-Pro-Trp] (H-[Sar]RVY[Ac6c]HPW-OH)
> 1.3 nM

Here is the next molecule: CNCC(=O)N[C@@H](CCCNC(=N)N)C(=O)N[C@H](C(=O)N[C@@H](Cc1ccc(O)cc1)C(=O)NC1(C(=O)N[C@@H](Cc2c[nH]cn2)C(=O)N2CCC[C@H]2C(=O)N[C@@H](Cc2ccccc2)C(=O)O)CCCC1)C(C)C [SEQ ID NO: 24, Sar-Arg-Val-Tyr-cyPen-His-Pro-Phe] (H-[Sar]RVY[Ac5c]HPF-OH)
< 1.3 nM

Here is the next molecule: CNCC(=O)N[C@@H](CCCNC(=N)N)C(=O)N[C@H](C(=O)N[C@@H](Cc1ccc(O)cc1)C(=O)NC1(C(=O)N[C@@H](Cc2c[nH]cn2)C(=O)N2CCC[C@H]2C(=O)N[C@@H](CC(C)C)C(=O)O)CCCCC1)C(C)C [SEQ ID NO: 12, Sar-Arg-Val-Tyr-cyHex-His-Pro-Leu] (H-[Sar]RVY[Ac6c]HPL-OH)
> 1.3 nM

Here is the next molecule: CNCC(=O)N[C@@H](CCCNC(=N)N)C(=O)N[C@H](C(=O)N[C@@H](Cc1ccc(O)cc1)C(=O)NC1(C(=O)N[C@@H](Cc2c[nH]cn2)C(=O)N2CCC[C@H]2C(=O)N[C@H](C(=O)O)C(C)(C)C)CCCCC1)C(C)C [SEQ ID NO: 56, Sar-Arg-Val-Tyr-cyHex-His-Pro-AA02] (H-[Sar]RVY[Ac6c]HP[Tle]-OH)
> 1.3 nM

Here is the next molecule: CNCC(=O)N[C@@H](CCCCN)C(=O)N[C@H](C(=O)N[C@@H](Cc1ccc(O)cc1)C(=O)NC1(C(=O)N[C@@H](Cc2c[nH]cn2)C(=O)N2CCC[C@H]2C(=O)N[C@@H](C)C(=O)O)CCCCC1)C(C)C [SEQ ID NO: 51, Sar-Lys-Val-Tyr-cyHex-His-Pro-Ala] (H-[Sar]KVY[Ac6c]HPA-OH)
> 1.3 nM

Here is the next molecule: CNCC(=O)N[C@@H](CCCNC(=N)N)C(=O)N[C@H](C(=O)N[C@@H](Cc1ccc(O)cc1)C(=O)NC1(C(=O)N[C@@H](Cc2c[nH]cn2)C(=O)N2CCC[C@H]2C(=O)N[C@@H](Cc2ccccc2)C(=O)O)CCCCC1)C(C)C [SEQ ID NO: 17, Sar-Arg-Val-Tyr-cyHex-His-Pro-Phe] (H-[Sar]RVY[Ac6c]HPF-OH; N-terminus and C-terminus assumed)
< 1.3 nM

Here is the next molecule: CNCC(=O)N[C@@H](CCCNC(=N)N)C(=O)N[C@H](C(=O)N[C@@H](Cc1ccc(O)cc1)C(=O)NC1(C(=O)N[C@@H](Cc2c[nH]cn2)C(=O)N2CCC[C@H]2C(=O)N[C@H](C(=O)O)C(C)C)CCCC1)C(C)C [SEQ ID NO: 20, Sar-Arg-Val-Tyr-cyPen-His-Pro-Val] (H-[Sar]RVY[Ac5c]HPV-OH)
> 1.3 nM
